Test: compounds altering viability of human ES cells (AID 493140);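 further: cells exposed to compounds for four days before counting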
Settings: human embryonic stem cell survival screen
Active and inactive are the calls of the source. How the calls were made is not given here.
Return exactly one item of active, inactive

For `N#C/C(=C\c1cc(Cl)cc(Cl)c1)c1cccnc1` , which call appears in the assay record?
inactive

For `C=C1CC[C@@H](O)C/C1=C/C=C1\CCC[C@]2(C)[C@@H]([C@H](C)CCCC(C)C)CC[C@@H]12` , which call appears in the assay record?
inactive

For `C=C1CC23CC4C5[C@@]6(C)C[C@H](OC(=O)c7ccccc7)[C@@H](OC(C)=O)[C@@]57C2[C@H](OC(C)=O)[C@@H]1[C@H](O)[C@H]3[C@H]7N4C6` , which call appears in the assay record?
inactive

For `C[N+]1(C)C[C@@H](O)C[C@H]1C(=O)[O-]` , which call appears in the assay record?
inactive

For `CNCCNS(=O)(=O)c1cccc2cnccc12` , which call appears in the assay record?
active

For CCCCCCCC/C=C\CCCCCCCC(=O)OCC(CO)OC(=O)CCCCCCC/C=C\CCCCCCCC (stereo not drawn) , which call appears in the assay record?
inactive

For `CCCCC[C@H](O)/C=C/C=C\C/C=C\C=C\[C@@H](O)CCCC(=O)O` , which call appears in the assay record?
inactive

For CCCCC/C=C\C[C@@H]1O[C@H]1/C=C/C(O)C/C=C\CCCC(=O)O (stereo partly drawn) , which call appears in the assay record?
inactive

For `CCCCCCCCCCCCCCCC(=O)N[C@@H](COP(=O)(O)O)C(=O)O` , which call appears in the assay record?
inactive

For `CCCCCCCCCCCCC/C=C/[C@@H](O)[C@H](CO)NC(=O)CCCCCCCCCCCCCCC` , which call appears in the assay record?
inactive

For `Clc1cnccn1` , which call appears in the assay record?
inactive

For COC1CC(O[C@@H]2[C@H](C)[C@H](OC3OC(C)CC(N(C)C)C3OC(C)=O)[C@H](C)CC3(CO3)C(=O)[C@@H](C)C(OC(C)=O)[C@H](C)[C@H](C)OC(=O)[C@@H]2C)OC(C)C1OC(C)=O (stereo partly drawn) , which call appears in the assay record?
inactive

For CCC(C(=O)C(C)C(O)C(C)CCc1ccc(C)c(O)c1C(=O)O)[C@H]1O[C@](CC)([C@H]2CC[C@](O)(CC)[C@H](C)O2)C[C@@H]1C (stereo partly drawn) , which call appears in the assay record?
inactive

For `CCCCC[C@H](O)/C=C/C=C\C/C=C\C/C=C\CCCC(=O)O` , which call appears in the assay record?
inactive

For `O=C(O)c1cc(N(Cc2ccccc2O)Cc2cc(O)ccc2O)ccc1O` , which call appears in the assay record?
inactive

For `CCOC(=O)O[C@]1(C(=O)COC(=O)CC)CC[C@H]2[C@@H]3CCC4=CC(=O)C=C[C@]4(C)[C@H]3[C@@H](O)C[C@@]21C` , which call appears in the assay record?
inactive

For CN(C)CCCO[C@H]1[C@@H](C(O)CO)OC2OC(C)(C)O[C@H]21 (stereo partly drawn) , which call appears in the assay record?
inactive

For O=P(O)(O)C(O)c1ccc2ccccc2c1 (stereo not drawn) , which call appears in the assay record?
inactive

For `O=C1C=CC(=O)c2c1ccc1c2ccc2ccccc21` , which call appears in the assay record?
inactive

For `O=C(N[C@H](CO)[C@@H](O)c1ccc([N+](=O)[O-])cc1)C(Cl)Cl` , which call appears in the assay record?
inactive

For CCCCCCCCCCCCCCCC(=O)OCC(COP(=O)(O)O)OC(=O)CCCCCCCCCCCCCCC (stereo not drawn) , which call appears in the assay record?
inactive

For `CCCCC/C=C\C=C\[C@@H](O)C/C=C\C/C=C\CCCC(=O)O` , which call appears in the assay record?
inactive

For CCCCC/C=C\C\C=C/C=C/C=C/[C@@H](SCC(NC(=O)CCC(N)C(=O)O)C(=O)NCC(=O)O)[C@@H](O)CCCC(=O)O (stereo partly drawn) , which call appears in the assay record?
inactive

For `CCCCCC(=O)CC[C@@H]1[C@@H](C/C=C\CCCC(=O)O)[C@@H](O)C[C@H]1O` , which call appears in the assay record?
inactive

For C[C@H]1c2cccc(O)c2C(O)=C2C(=O)C3(O)C(O)=C(C(N)=O)C(=O)[C@@H](N(C)C)[C@@H]3[C@@H](O)[C@@H]21 (stereo partly drawn) , which call appears in the assay record?
inactive

For CCCCCCCCCC(=O)OCC(CO)OC(=O)CCCCCCCCC (stereo not drawn) , which call appears in the assay record?
inactive

For `CCCCC[C@H](O)/C=C/[C@@H]1[C@@H](C/C=C\CCCC(=O)O)[C@H]2CO[C@@H]1C2` , which call appears in the assay record?
inactive

For `CC1(C)S[C@@H]2[C@H](NC(=O)C3(N)CCCCC3)C(=O)N2[C@H]1C(=O)O` , which call appears in the assay record?
inactive

For COC(C)(C)CCCC(C)C/C=C/C(C)=C/C(=O)O (stereo not drawn) , which call appears in the assay record?
inactive

For `Nc1ncc2[nH]cnc2n1` , which call appears in the assay record?
inactive

For COc1ccc(CC(C)(N)C(=O)O)cc1OC (stereo not drawn) , which call appears in the assay record?
inactive

For `CCCCC/C=C\C[C@@H](O)/C=C/C=C/C=C\[C@@H](O)CCCC(=O)O` , which call appears in the assay record?
inactive

For S=C(NC1CCCCC1)N1CCC(C2C=NC=N2)CC1 (stereo not drawn) , which call appears in the assay record?
inactive

For CCCCC/C=C\C\C=C/C=C/C=C/[C@@H](SCC(NC(C)=O)C(=O)O)[C@@H](O)CCCC(=O)O (stereo partly drawn) , which call appears in the assay record?
inactive

For `CCCCC/C=C\C=C\[C@@H](O)CCCCCCCC(=O)O` , which call appears in the assay record?
inactive

For `CNC(=O)c1c(I)c(C(=O)NCC(=O)Nc2c(I)c(C(=O)O)c(I)c(C(=O)NCCO)c2I)c(I)c(N(C)C(C)=O)c1I` , which call appears in the assay record?
inactive

For `CCCCCCCCCCCCCCCCCCOC[C@@H](O)COP(=O)([O-])OCC[N+](C)(C)C` , which call appears in the assay record?
inactive

For `C=C1CC[C@@H](O)C/C1=C/C=C1\CCC[C@]2(C)[C@@H]([C@H](C)/C=C/[C@@H](C)C(C)C)CC[C@@H]12` , which call appears in the assay record?
inactive
